Measurement record for MDM2 (Homo sapiens, UniProt Q00987); quantity recorded: pIC50.
Value format note: pIC50 is -log10 of concentration (mol/L); just state the number.

The molecule listed as COc1cc(OC)c(-c2nc3c(n2C(C)C)[C@]2(C(=O)Nc4cc(Cl)ccc42)N(c2ccc(C(N)=O)c(Cl)c2)C3=O)cn1 [Example R-65] shows pIC50 equal to 6.30

Sample COc1nc(C(C)C)ncc1-c1nc2c(n1C(C)C)[C@]1(C(=O)Nc3cc(Cl)ccc31)N(c1cc(Cl)ccc1C)C2=O [Example R-172] ; pIC50 observed: 6.39

For record COc1cc(OC(C)C)ncc1-c1nc2c(n1C(C)C)[C@@]1(C(=O)Nc3cc(Cl)ccc31)N(c1cc(Cl)ccc1C)C2=O [Example S-69] the listed pIC50 is 8.75

pIC50 for COc1nc(C(C)C)ncc1-c1nc2c(n1C(C)C)[C@@]1(C(=O)Nc3cc(Cl)ccc31)N(c1cc(Cl)ccc1C)C2=O [Example S-172] is 8.38

Documented pIC50 of COc1nc(OCC(F)F)ncc1-c1nc2c(n1C(C)C)[C@]1(C(=O)Nc3cc(Cl)ccc31)N(c1cc(Cl)ccc1C)C2=O [Example R-147] : 6.93

The reported pIC50 of the molecule COc1ncc(-c2nc3c(n2C(C)C)[C@]2(C(=O)Nc4cc(Cl)ccc42)N(c2ccc(OC)c(Cl)c2)C3=O)c(OC)n1 [Example R-48] was 6.71

The measured pIC50 associated with COc1ncc(-c2nc3c(n2C(C)C)[C@]2(C(=O)Nc4cc(Cl)ccc42)N(c2cc(Cl)cn(C)c2=O)C3=O)c(OC)n1 [Example R-16] reads 6.24

GET /value?item= Cc1ccc(Cl)cc1N1C(=O)c2nc(-c3ccccc3OC(F)F)n(C(C)C)c2[C@@]12C(=O)Nc1cc(Cl)ccc12 [Example S-30] &field=pIC50 returns 8.48

The reported pIC50 of the molecule CNC(=O)c1ccc(-c2nc3c(n2C(C)C)[C@]2(C(=O)Nc4cc(Cl)ccc42)N(c2cc(Cl)ccc2C)C3=O)c(OC)c1 [Example R-54] was 5.71

pIC50 reported for this molecule COc1cc(F)ccc1-c1nc2c(n1C(C)C)[C@@]1(C(=O)Nc3cc(Cl)ccc31)N(c1cc(Cl)ccc1C)C2=O [Example S-4] : 8.47

Recorded pIC50 (molecule COc1cc(N(C)C)ccc1-c1nc2c(n1C(C)C)[C@@]1(C(=O)Nc3cc(Cl)ccc31)N(c1cc(Cl)ccc1F)C2=O [Example S-81] ): 8.91

Entry COc1cc(C(C)C)ccc1-c1nc2c(n1C(C)C)[C@@]1(C(=O)Nc3cc(Cl)ccc31)N(c1cc(Cl)cnc1C)C2=O [Example S-89] ; pIC50 = 8.36

Record COc1cc(C(=O)N(C)C)ccc1-c1nc2c(n1C(C)C)[C@]1(C(=O)Nc3cc(Cl)ccc31)N(c1cc(Cl)ccc1C)C2=O [Example R-68] . Reported pIC50: 6.18

----------
Tested on: human osteosarcoma cell line SJSA-1
Experiment: Inhibition of proliferation of human osteosarcoma cell line SJSA-1 (DAPI staining, In Cell Analyzer)
Conditions: Homo sapiens, SJSA-1, 72 h, read-out: IC50 (nM), inhibitory activity on proliferation of human osteosarcoma cell line SJSA-1, SJSA-1, incubated 72 h
value-type: IC50 (nM)
Please give a number only; it is taken to be in nM.

For record `COc1cc(OC)c(-c2nc3c(n2C(C)C)[C@@]2(C(=O)Nc4cc(Cl)ccc42)N(c2cc(F)cc(Cl)c2)C3=O)cn1` the listed IC50 is 49.2

`COc1cc(OC(F)(F)F)ccc1-c1nc2c(n1C(C)C)[C@@]1(C(=O)Nc3cc(Cl)ccc31)N(c1cc(Cl)ccc1C)C2=O` yielded IC50 of 11.1

// IC50 lookup, molecule = `COc1cc(C(F)(F)F)ccc1-c1nc2c(n1C(C)C)[C@]1(C(=O)Nc3cc(Cl)ccc31)N(c1cc(Cl)cnc1C)C2=O` , result: 2450

// IC50 value for `COc1cc(C(C)C)ccc1-c1nc2c(n1C(C)C)[C@@]1(C(=O)Nc3cc(Cl)ccc31)N(c1cc(Cl)cnc1C)C2=O` : 43.2

Memo: `COc1ncc(-c2nc3c(n2C(C)C)[C@]2(C(=O)Nc4cc(Cl)ccc42)N(c2ccc(C)c(Cl)c2)C3=O)c(OC)n1` , reported IC50: 4010

Sure, the documented IC50 for `COc1ccc(-c2nc3c(n2C(C)C)[C@]2(C(=O)Nc4cc(Cl)ccc42)N(c2cc(Cl)c(=O)n(C)c2)C3=O)c(OC)c1` is 22400
